The reported measurements were obtained from patent US12522596B2.

Assay Remarks: Rat pharmacokinetics, intravenous dosing
Type: in vivo, Sprague-Dawley rats
Experimental Context: male, Sprague-Dawley; rat plasma, 1 mg/kg IV (0.5 mg/mL)
Protocol: Intravenous dosing: Compounds were formulated at 0.5 mg/mL in a solution comprising 5% polyethylene glycol 400 and 95% (12% (w/v) sulfobutyl-β-cyclodextrin in water) (v/v). Formulated compounds were sterile filtered through a 0.22 micron filter before dosing. […] Data analysis: Plasma concentration versus time data was plotted in graph and analyzed by non-compartmental approaches using the Phoenix WinNonlin 6.3 software program. […]
Quantity: AUC(0-t) (ng·h/mL)

N#Cc1ccc(COc2cccc(C3CCN(Cc4nc5ccc(C(=O)O)cc5n4C[C@@H]4CCO4)CC3)n2)c(F)c1 [Reference Compound A, reference compound]    325
N#Cc1ccc(COc2cccc(C3CCN(Cc4nc5ccc(C(=O)O)cc5n4Cc4cncs4)CC3)n2)c(F)c1    427

====

Assay Remarks: Caco-2 passive permeability and efflux ratio
Type: in vitro ADME
Experimental Context: human; Caco-2, 5 μM, pH 7.4, 120 minutes
Quantity: Papp at 120 min, 5 μM

Cc1ncsc1Cn1c(CN2CCC(c3cccc(OCc4ccc(C#N)cc4F)n3)CC2)nc2ccc(C(=O)O)cc21    49.9 ×10⁻⁶ cm/s
N#Cc1ccc(COc2cccc(C3CCN(Cc4nc5ccc(C(=O)O)cc5n4Cc4cncs4)CC3)n2)c(F)c1    31.5 ×10⁻⁶ cm/s
N#Cc1ccc(COc2ccnc(C3CCN(Cc4nc5ccc(C(=O)O)cc5n4Cc4cncs4)CC3)n2)c(F)c1    2.82 ×10⁻⁶ cm/s
N#Cc1ccc(COc2cccc(C3CCN(Cc4nc5ccc(C(=O)O)cc5n4C[C@@H]4CCO4)CC3)n2)c(F)c1 [Reference Compound A, reference compound]    15.5 ×10⁻⁶ cm/s
CC1(c2ccc(C#N)cc2F)Oc2cccc(C3CCN(Cc4nc5ccc(C(=O)O)cc5n4Cc4cncs4)CC3)c2O1 (stereo not drawn)    16.8 ×10⁻⁶ cm/s
N#Cc1ccc(COc2cccc(N3CCN(Cc4nc5ccc(C(=O)O)cc5n4Cc4cncs4)CC3)n2)c(F)c1    9.41 ×10⁻⁶ cm/s

====

Assay Remarks: Pharmacokinetics in hGLP-1R mice after oral dosing
Format: in vivo, male C57BL/6J hGLP-1R mouse
Experimental Context: male, C57BL/6J hGLP-1R, mouse, plasma, po, 1 mg/kg, hGLP-1R mouse plasma, PO 1 mg/kg, mean; read-out: AUC0-last
Quantity: AUC(0-t)

N#Cc1ccc(COc2cccc(C3CCN(Cc4nc5ccc(C(=O)O)cc5n4Cc4cncs4)CC3)n2)c(F)c1    390 ng·h/mL
N#Cc1ccc(COc2cccc(C3CCN(Cc4nc5ccc(C(=O)O)cc5n4C[C@@H]4CCO4)CC3)n2)c(F)c1 [Reference Compound A, reference compound]    85.5 ng·h/mL

====

Assay Remarks: Pharmacokinetics in hGLP-1R mice after oral dosing
Type: in vivo, male C57BL/6J hGLP-1R mouse
Experimental Context: male, C57BL/6J hGLP-1R, mouse, plasma, po, 1 mg/kg, hGLP-1R mouse plasma, PO 1 mg/kg, individual mice; read-out: T1/2 (converted)
Quantity: half-life (h)

N#Cc1ccc(COc2cccc(C3CCN(Cc4nc5ccc(C(=O)O)cc5n4Cc4cncs4)CC3)n2)c(F)c1 [Compound 2]    1.28

====

Reported pEC50 values for a set of molecules
System: human GLP-1R receptor (Homo sapiens, UniProt P43220)
Sequence (P43220 24-463): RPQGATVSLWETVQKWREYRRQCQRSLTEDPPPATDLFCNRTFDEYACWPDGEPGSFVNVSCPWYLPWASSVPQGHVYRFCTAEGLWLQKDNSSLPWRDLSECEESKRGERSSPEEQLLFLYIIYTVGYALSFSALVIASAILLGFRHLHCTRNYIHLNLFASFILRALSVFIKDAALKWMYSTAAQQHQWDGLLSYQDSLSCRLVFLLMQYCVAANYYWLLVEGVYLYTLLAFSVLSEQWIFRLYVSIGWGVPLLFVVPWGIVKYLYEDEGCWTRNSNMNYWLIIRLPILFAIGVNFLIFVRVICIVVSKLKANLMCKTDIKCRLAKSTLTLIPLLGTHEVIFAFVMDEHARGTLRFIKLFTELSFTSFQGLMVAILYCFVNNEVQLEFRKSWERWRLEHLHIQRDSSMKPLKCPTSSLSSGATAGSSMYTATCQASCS
Assay Remarks: GLP-1R low expression cell assay (cAMP TR-FRET, CHO-K1_hGLP-1Rlow_clone10)
Experimental Context: CHO-K1_hGLP-1Rlow_clone10 cells
Source text: Stable cell lines expressing high and low GLP-1R surface expression were generated in CHO-K1 cells transfected (Fugene 6) with a puromycin selectable DNA plasmid encoding human GLP-1R receptor (accession number: NM_002062.5) under control of an EF1A promoter. […] TR-FRET signal was detected using an En Vision Multimode Plate Reader (excitation=320 nm; emission=615 and 655 nm). […] Selected cell lines were monitored for responsiveness over multiple passages to ensure stability. […]
pEC50: −log10 of the molar value.
Quantity: pEC50

N#Cc1cc(F)c2c(c1)CCN(c1cccc(C3CCN(Cc4nc5ccc(C(=O)O)cc5n4Cc4cncs4)CC3)n1)C2    7.35
O=C(O)c1ccc2nc(CN3CC[C@]4(c5cccc(OCc6ccc(Cl)cc6F)n5)C[C@@H]4C3)n(Cc3cncs3)c2c1    7.82
[2H]C([2H])(Oc1cccc(C2CCN(Cc3nc4ccc(C(=O)O)cc4n3Cc3cncs3)CC2)n1)c1ccc(Cl)cc1F    8.40
COc1ccsc1Cn1c(CN2CCC(c3cccc(OCc4nc5c(F)cc(C#N)cc5s4)n3)CC2)nc2ccc(C(=O)O)cc21    6.41
O=C(O)c1ccc2nc(CN3CC[C@@]4(c5cccc(OCc6ccc(Cl)cc6F)n5)C[C@H]4C3)n(Cc3cncs3)c2c1    7.61
N#Cc1ccc(COc2cccc(C34CCN(Cc5nc6ccc(C(=O)O)cc6n5Cc5cncs5)CC3C4)n2)c(F)c1 (stereo not shown)    7.52
CCc1ncsc1Cn1c(CN2CCC(c3cccc(OCc4nc5c(F)cc(C#N)cc5s4)n3)CC2)nc2ccc(C(=O)O)cc21    6.44
